biological target: Hexokinase-4 (Homo sapiens); assay: Activity of recombinant human pancreatic glucokinase assessed as glucose half-maximal saturation concentration
experimental.endpoint: S50 (mM)
Give the number; mM is assumed, so skip it.

Reference set (4 entries):
Cc1cccnc1-c1cc(Oc2ccc(S(C)(=O)=O)cc2)cc(C(=O)Nc2nc(CC(=O)NC3CC3)cs2)c1 ... 1.78
Cc1cccnc1-c1cc(Oc2ccc(S(C)(=O)=O)cc2)cc(C(=O)Nc2nc(CN3CCN(C)CC3)cs2)c1 ... 3.44
C#CCNCc1csc(NC(=O)c2cc(Oc3ccc(S(C)(=O)=O)cc3)cc(-c3ncccc3C)c2)n1 ... 2.21
CCCNCc1csc(NC(=O)c2cc(Oc3ccc(S(C)(=O)=O)cc3)cc(-c3ncccc3C)c2)n1 ... 4.51

Query: S50; subject: Cc1cccnc1-c1cc(Oc2ccc(S(C)(=O)=O)cc2)cc(C(=O)Nc2nc(CN3CCOCC3)cs2)c1 3.24

Query: S50; subject: Cc1cccnc1-c1cc(Oc2ccc(S(C)(=O)=O)cc2)cc(C(=O)Nc2nc(CNC(C)C)cs2)c1 3.98

Query: S50; subject: COCCN(C)Cc1csc(NC(=O)c2cc(Oc3ccc(S(C)(=O)=O)cc3)cc(-c3ncccc3C)c2)n1 4.56

Query: S50; subject: Cc1cccnc1-c1cc(Oc2ccc(S(C)(=O)=O)cc2)cc(C(=O)Nc2nc(CN3CCNCC3)cs2)c1 3.08

Query: S50; subject: CCNC(=O)Cc1csc(NC(=O)c2cc(Oc3ccc(S(C)(=O)=O)cc3)cc(-c3ncccc3C)c2)n1 4.35

Query: S50; subject: Cc1cccnc1-c1cc(Oc2ccc(S(C)(=O)=O)cc2)cc(C(=O)Nc2ncc(F)s2)c1 1.95
